Attribute: pIC50
Biological target: stromelysin (MMP-3) (Homo sapiens)
Construct: enzymatic activity of the catalytic domains of human stromelysin and of neutrophil collagenase
Sequence (P08254 100-272 limits assumed): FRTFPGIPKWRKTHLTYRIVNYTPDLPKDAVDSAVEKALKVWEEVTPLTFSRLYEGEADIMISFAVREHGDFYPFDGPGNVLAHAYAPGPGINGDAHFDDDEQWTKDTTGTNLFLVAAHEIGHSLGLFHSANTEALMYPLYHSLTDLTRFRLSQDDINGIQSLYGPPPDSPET
Assay: Enzyme inhibition of the catalytic domain of human stromelysin (fluorogenic substrate)
Conditions: 15 min preincubation, pH=6.5, fluorescence 328 nm (ex)/393 nm (em)
pIC50: −log10 of the molar value.
Reported endpoint: pIC50

[[record]]
molecule = "O=C(O)[C@@H](CCCN1Cc2ccccc2C1=O)NS(=O)(=O)c1ccc(-c2ccc(Cl)cc2)cc1"
measured_number = 8.40

[[record]]
molecule = "CC(C)(CC(=O)O)CC(=O)NCCC[C@H](NS(=O)(=O)c1ccc(-c2ccc(Cl)cc2)cc1)C(=O)O"
measured_number = 7.52

[[record]]
molecule = "O=C(O)C(CCCN1C(=O)c2ccccc2C1=O)NS(=O)(=O)c1ccc(-c2ccc(Cl)cc2)cc1 (racemic)"
measured_number = 8.30

[[record]]
molecule = "O=C(NCCC[C@H](NS(=O)(=O)c1ccc(-c2ccc(Cl)cc2)cc1)C(=O)O)c1ccc(F)c(F)c1"
measured_number = 7.52

[[record]]
molecule = "Cc1oncc1C(=O)NCCC[C@@H](NS(=O)(=O)c1ccc(-c2ccc(Cl)cc2)cc1)C(=O)O"
measured_number = 7.40

[[record]]
molecule = "O=C(NCCC[C@H](NS(=O)(=O)c1ccc(-c2ccc(Cl)cc2)cc1)C(=O)O)c1cccnc1"
measured_number = 7.70

[[record]]
molecule = "O=C(NCCC[C@@H](NS(=O)(=O)c1ccc(-c2ccc(Cl)cc2)cc1)C(=O)O)C1CC1"
measured_number = 8.30

[[record]]
molecule = "O=C(CC[C@@H](C(=O)O)c1ccccc1)NCCC[C@H](NS(=O)(=O)c1ccc(-c2ccc(Cl)cc2)cc1)C(=O)O"
measured_number = 8.00

[[record]]
molecule = "O=C(NCCC[C@@H](NS(=O)(=O)c1ccc(-c2ccc(Cl)cc2)cc1)C(=O)O)c1ccc2c(c1)OCO2"
measured_number = 7.70

[[record]]
molecule = "O=C(NCCC[C@H](NS(=O)(=O)c1ccc(-c2ccc(Cl)cc2)cc1)C(=O)O)c1ccccc1C(F)(F)F"
measured_number = 8.00

[[record]]
molecule = "COc1ccc(C(=O)NCCC[C@H](NS(=O)(=O)c2ccc(-c3ccc(Cl)cc3)cc2)C(=O)O)cc1OC"
measured_number = 7.70

[[record]]
molecule = "Cn1cccc1C(=O)NCCC[C@H](NS(=O)(=O)c1ccc(-c2ccc(Cl)cc2)cc1)C(=O)O"
measured_number = 7.52

[[record]]
molecule = "N/C(=N\\[N+](=O)[O-])NCCC[C@@H](NS(=O)(=O)c1ccc(-c2ccc(Cl)cc2)cc1)C(=O)O"
measured_number = 7.22

[[record]]
molecule = "CC(C)(C)OC(=O)NCCCC[C@@H](NS(=O)(=O)c1ccc(-c2ccc(Cl)cc2)cc1)C(=O)O"
measured_number = 7.70

[[record]]
molecule = "O=C(O)[C@H](CCCN(C(=O)C1CC1)C(=O)C1CC1)NS(=O)(=O)c1ccc(-c2ccc(Cl)cc2)cc1"
measured_number = 8.00

[[record]]
molecule = "O=C(NCCC[C@H](NS(=O)(=O)c1ccc(-c2ccc(Cl)cc2)cc1)C(=O)O)c1ccco1"
measured_number = 8.30

[[record]]
molecule = "CN(C)c1ccc(C(=O)NCCC[C@H](NS(=O)(=O)c2ccc(-c3ccc(Cl)cc3)cc2)C(=O)O)cc1"
measured_number = 8.00

[[record]]
molecule = "NC(=O)NCCCC[C@H](NS(=O)(=O)c1ccc(-c2ccc(Cl)cc2)cc1)C(=O)O"
measured_number = 7.52

[[record]]
molecule = "O=C(NCCC[C@H](NS(=O)(=O)c1ccc(-c2ccc(Cl)cc2)cc1)C(=O)O)c1ccc2[nH]cnc2c1"
measured_number = 8.00

[[record]]
molecule = "O=C(CC1CCCCC1)NCCC[C@H](NS(=O)(=O)c1ccc(-c2ccc(Cl)cc2)cc1)C(=O)O"
measured_number = 7.70

[[record]]
molecule = "O=C(O)[C@H](CCN1C(=O)c2ccccc2C1=O)NS(=O)(=O)c1ccc(-c2ccccc2)cc1"
measured_number = 7.40

[[record]]
molecule = "NC(=O)C1(C(=O)NCCC[C@H](NS(=O)(=O)c2ccc(-c3ccc(Cl)cc3)cc2)C(=O)O)CC1"
measured_number = 7.70

[[record]]
molecule = "Cc1ccc(C(=O)NCCC[C@H](NS(=O)(=O)c2ccc(-c3ccc(Cl)cc3)cc2)C(=O)O)s1"
measured_number = 7.70

[[record]]
molecule = "O=C(CC[C@H](C(=O)O)c1ccccc1)NCCC[C@H](NS(=O)(=O)c1ccc(-c2ccc(Cl)cc2)cc1)C(=O)O"
measured_number = 8.30

[[record]]
molecule = "O=C(NCCC[C@H](NS(=O)(=O)c1ccc(-c2ccc(Cl)cc2)cc1)C(=O)O)c1ccccc1F"
measured_number = 8.00

[[record]]
molecule = "C[C@@H]1NC(=O)N(CCC[C@H](NS(=O)(=O)c2ccc(-c3ccc(Cl)cc3)cc2)C(=O)O)C1=O"
measured_number = 8.00

[[record]]
molecule = "O=C(NCCC[C@H](NS(=O)(=O)c1ccc(-c2ccc(Cl)cc2)cc1)C(=O)O)c1ccc(Cc2ccccc2)cc1"
measured_number = 7.15

[[record]]
molecule = "O=C(NCCC[C@H](NS(=O)(=O)c1ccc(-c2ccccc2)cc1)C(=O)O)c1ccccc1Cl"
measured_number = 7.15

[[record]]
molecule = "O=C(O)[C@H](CCCN1C(=O)c2ccc(Cl)cc2C1=O)NS(=O)(=O)c1ccc(-c2ccc(Cl)cc2)cc1"
measured_number = 7.52


Values were extracted from patent US6355673B1.
